# Test system: HCV 1b_Huh-Luc/Neo-ET cell line persistently expressing a bicistronic genotype 1b replicon in Huh 7 cells
# EXPERIMENT DESCRIPTION: HCV replicon assay (luciferase readout, 72 h)
# Format: cell-based, HCV genotype 1b
# COND: Hepatitis C virus, Huh-7, 72 h, read-out: Inhibition of HCV genotype 1b
pEC50: −log10 of the molar value.
VALUE TYPE: pEC50

INPUT: Name the recorded pEC50 of the item `O=C(N[C@@H](C(=O)N1CCC[C@H]1c1ncc(-c2ccc(C#Cc3ccc(-c4cnc([C@@H]5CCCN5C(=O)[C@H](NC(=O)OC5CCOCC5)c5ccccc5)[nH]4)c(F)c3)cc2)[nH]1)c1ccccc1)OC1CCOCC1` in your answer.
OUTPUT: > 9.00

INPUT: Name the recorded pEC50 of the item `CC(C)[C@H](NC(=O)N1CCC(C)(O)CC1)C(=O)N1CCC[C@H]1c1ncc(-c2ccc(C#Cc3ccc(-c4cnc([C@@H]5CCCN5C(=O)[C@@H](NC(=O)N5CCC(C)(O)CC5)C(C)C)[nH]4)cc3)cc2)[nH]1` in your answer.
OUTPUT: 6.00 to 8.00

INPUT: Name the recorded pEC50 of the item `CC(=O)N[C@@H](C(=O)N1CCC[C@H]1c1ncc(C#Cc2ccc(-c3cnc([C@@H]4CCCN4C(=O)[C@H](NC(C)=O)c4ccccc4)[nH]3)cc2)[nH]1)c1ccccc1` in your answer.
OUTPUT: > 9.00

INPUT: Name the recorded pEC50 of the item `O=C(N[C@@H](C(=O)N1CCC[C@H]1c1nc(-c2ccc3cc(C#Cc4cnc([C@@H]5CCCN5C(=O)[C@H](NC(=O)N5CCOCC5)c5ccccc5)[nH]4)ccc3c2)c[nH]1)c1ccccc1)N1CCOCC1` in your answer.
OUTPUT: > 9.00

* * *

# System: HCV 1b_Huh-Luc/Neo-ET cell line persistently expressing a bicistronic genotype 1b replicon in Huh 7 cells
# EXPERIMENT DESCRIPTION: HCV replicon assay (luciferase readout, 72 h)
# Assay type: cell-based, HCV genotype 1b
# COND: Hepatitis C virus, Huh-7, 72 h, read-out: Inhibition of HCV genotype 1b
pEC50: −log10 of the molar value.
Record form. Attribute: pEC50. Fill in for each entry.

INPUT: Name the recorded pEC50 of the item COC(=O)N[C@@H](C(=O)N1CCC[C@H]1c1cc(-c2ccc(C#Cc3ccc(-c4cnc([C@@H]5CCCN5C(=O)[C@H](NC(=O)OC)c5ccccc5)[nH]4)cc3)cc2)n[nH]1)c1ccccc1 [Compound 219] in your answer.
OUTPUT: > 9.00

INPUT: Name the recorded pEC50 of the item CN(C)C(=O)N[C@@H](C(=O)N1CCC[C@H]1c1cc(-c2ccc(C#Cc3ccc(-c4cnc([C@@H]5CCCN5C(=O)[C@H](NC(=O)N(C)C)c5ccccc5)[nH]4)cc3)cc2)n[nH]1)c1ccccc1 [Compound 221] in your answer.
OUTPUT: > 9.00

INPUT: Name the recorded pEC50 of the item C(#Cc1ccc2nc([C@@H]3CCCN3)[nH]c2c1)c1ccc(-c2cnc([C@@H]3CCCN3)[nH]2)cc1 [Compound 1035] in your answer.
OUTPUT: 6.00 to 8.00

INPUT: Name the recorded pEC50 of the item COC(=O)N[C@H](C(=O)N1CCC[C@H]1c1ncc(-c2ccc(C#Cc3ccc4nc([C@@H]5CCCN5C(=O)[C@@H](NC(=O)OC)C5CCCC5)[nH]c4c3)cc2)[nH]1)C1CCCC1 [Compound 1025] in your answer.
OUTPUT: > 9.00
